test: chemical genetic growth profiling, strain panel (AID 1159580);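 also: tested at 20 µM; growth read once vehicle control cultures reached saturation at 30 °C; lower values mean less growth of the strain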; conditions: S. cerevisiae deletion strains, growth OD, locus YLR039C, strain RIC1
In all, about 5,500 compounds went through this assay and about 2,000 (36%) were called active. Inconclusive results (about 18%) are left out. Rule as the data show it: active = normalized growth mostly below about 0.91 (no sharp cut-off); inconclusive = no clear call, values can overlap the other calls; inactive = mostly above about 0.92. Some of the results follow.
Choose the fitting class; nothing outside active, inactive is accepted.

Given COc1cc(C(=O)NCc2ccc(OCCN(C)C)cc2)cc(OC)c1OC , state the outcome it received in this test.
inactive

Field: outcome | Entry: Cc1ccc(/C(=C\CN2CCCC2)c2ccccn2)cc1
inactive

Just curious, what result did CN1C2CCC1CC(=NO)C2 get here?
inactive

What call does the record list for C=C(CC)C(=O)c1ccc(OCC(=O)O)c(Cl)c1Cl ?
inactive

For this compound, state the assay outcome: C[C@H]1[C@H]2CCC3C4CC=C5C[C@@H](N(C)C)CC[C@]5(C)C4CC[C@@]32CN1C (some centres not stated)
inactive

Kindly provide the recorded test outcome for the following compound: CC(C)c1ccc(NC(=S)NC(=O)c2ccc(C(F)(F)F)cc2)cc1
inactive

Hi team, can someone confirm the assay call for CC1C(c2ccccc2)OCCN1CN1C(=O)c2ccccc2C1=O (configuration not stated) ?
inactive

What did the test return for COc1ccc(CCNC(=S)Nc2cccc(C(F)(F)F)c2)cc1OC ?
inactive

How did this test come out for Nc1nc2ncc(C(=O)O)nc2c(=O)[nH]1 ?
inactive

Per the assay record, what outcome was assigned to CNC[C@@H](O)c1ccc(O)c(O)c1 ?
inactive

Each compound tested received a call. Report the one for C1CNCCN1 .
inactive

Recorded test outcome, item O=C(NC(=S)Nc1ccccn1)c1ccccc1
active
